These entries and their values trace back to PubChem BioAssay (NCI).

Exercise: for every item that follows, state its recorded TGI.
- Test system: SW-620 colon
- run description: NCI tumour cell line growth inhibition, 48 h
One number for each entry, in µM.

Sample answers from the record:
{"molecule": "C[C@@H]1Cc2cc(O)ccc2[C@H]2CC[C@]3(C)/C(=C/COCCN(C)C)CC[C@H]3[C@H]12 (tested in a mixture with another compound)", "reading": 0.482}
{"molecule": "CN1CCN(CCCCCN=c2cc3c(=O)n(CCCCCN4CCN(C)CC4)c(=O)c4c(NCCCCCN5CCN(C)CC5)cc5c(O)n(CCCCCN6CCN(C)CC6)c(=O)c2c5c4-3)CC1", "reading": 31.6}
{"molecule": "O=C(c1ccccc1)c1c(CC(O)c2ccncc2)n(C(=O)c2ccccc2)c2ccccc12 (stereo not drawn)", "reading": 39.2}
{"molecule": "C/C(=N\\O)c1cccc(Nc2cc(-n3ccnc3)c3ccccc3n2)c1", "reading": 42.1}

With those in mind, consider the next molecule.
INPUT: Find the recorded TGI belonging to CC1C=CC(OC(=O)C(C)(O)CCC(O)(C(=O)OC2CC(O)C(C(C)C)CC2(C)O)C(C)C)(C(C)C)CC1 (stereo not drawn) and report it.
OUTPUT: 1.41

* * *

Exercise: for every item that follows, state its recorded TGI.
- System: UACC-257 melanoma
- run description: NCI tumour cell line growth inhibition, 48 h

Would you mind giving TGI for every compound in the list below?
1. Cc1ccccc1-n1c(N)c(-c2nc3ccccc3[nH]2)sc1=S
2. COc1ccc(C2=NOC(N)(c3ccc(OC)cc3)C2)cc1 (stereo unspecified)

OUTPUT:
1: 36.6 µM; 2: > 100 µM

Would you mind giving TGI for every compound in the list below?
1. Cc1ccc(NC(=O)C(=O)C(C(=O)/C=C/c2ccccc2)C2OC(=O)c3ccccc32)c(C)c1 (stereo unspecified)
2. c1cc(-c2cn3c(n2)SCC3)ccn1
3. O=C1c2c(Br)sc(Br)c2[C@@H](NC(=O)C(F)(F)F)C1Br (stereo partly specified)
4. O=C1C=C(O)C(=Cc2c(O)cc(O)cc2O)C(O)=C1
5. COc1ccc2c3c1O[C@H](c1ccc(O)cc1)[C@H]3[N+](C)(C)CC2
6. Cc1cc2c(c(C(N)=O)c1C)-c1cc(Cl)cc(Cl)c1C2=O

OUTPUT:
1: > 100 µM; 2: > 100 µM; 3: 3.97 µM; 4: > 100 µM; 5: > 100 µM; 6: > 100 µM

Would you mind giving TGI for every compound in the list below?
1. CSc1ccc(C2=NN(C(C)=O)C(c3ccc(-c4ccc(Cl)cc4)o3)C2)cc1 (stereo unspecified)
2. O=C(NNS(=O)(=O)c1ccc(Cl)cc1Cl)c1cccnc1Nc1ccc(Cl)cc1

OUTPUT:
> 100 µM
60.5 µM

Would you mind giving TGI for every compound in the list below?
1. C=CCOc1ccc(C2C(C(=O)OC)C(=O)CC(O)(c3ccccc3)C2C(=O)OC)cc1OC (stereo unspecified)
2. CN1CCN(c2ccc3c(c2)NCC(=O)N3)CC1
3. C[N+](C)(C)c1ncnc2c1ncn2C1CCCO1 (stereo unspecified)
4. Cc1cc2c(cc1C)[n+](=O)c(C(=O)c1ccccc1)c(C(F)(F)F)n2[O-]
5. COc1ccc(NC(=O)C(=O)/C=C(\O)c2ccccc2)cc1
6. C[C@@H]1O[C@@H](O[C@@H]2[C@@H](O)[C@H](OCCc3ccc(O)c(O)c3)O[C@H](CO)[C@H]2OC(=O)/C=C/c2ccc(O)c(O)c2)[C@H](O)[C@H](OC2OC[C@](O)(CO)[C@H]2O)[C@H]1O (stereo partly specified)
7. O=Cc1ccc2c(c1I)OCO2

OUTPUT:
["> 100 µM", "> 100 µM", "> 100 µM", "14.6 µM", "> 10 µM", "90.1 µM", "> 100 µM"]

Would you mind giving TGI for every compound in the list below?
1. CCC(=O)Nc1ccc(N2C(=O)/C(=C/c3ccc(OC)cc3)N=C2c2ccccc2)cc1
2. N#CCCC1(CCC#N)CCCCCCCCC(CCC#N)(CCC#N)C(O)C1O (stereo unspecified)
3. CCOc1ccc(NC(=O)CCc2nnc(SC)o2)cc1
4. N[C@H](COCc1ccccc1)c1ccccc1

OUTPUT:
["> 50 µM", "> 100 µM", "> 100 µM", "> 81.1 µM"]

* * *

- Tested on: SF-268 CNS
- run description: NCI tumour cell line growth inhibition, 48 h
Exercise: for every item that follows, state its recorded TGI.

Sample answers from the record:
{"item smiles": "NC(N)=NCCC(O)(P(=O)(O)O)P(=O)(O)O", "property": "TGI", "reading": "> 100 µM"}
{"item smiles": "COc1ccc2c(c1)C(=O)c1c-2c(OCCN(C)C)nc2ccccc12", "property": "TGI", "reading": "10.7 µM"}
{"item smiles": "O=C1C(OCCOc2ccccc2)=C(OCCOc2ccccc2)C(=O)c2ccccc21", "property": "TGI", "reading": "> 100 µM"}

Would you mind giving TGI for every compound in the list below?
1. c1cc(N2CCN(c3ccc(C4=NCCCN4)cc3)CC2)ccc1C1=NCCCN1
2. O=C(NNS(=O)(=O)c1ccc(Cl)cc1Cl)c1cccnc1Nc1ccc(Cl)cc1

OUTPUT:
1: > 100 µM; 2: > 100 µM

* * *

Exercise: for every item that follows, state its recorded TGI.
- Tested on: HT29 colon
- run description: NCI tumour cell line growth inhibition, 48 h

{"item smiles": "O=C(c1ccco1)N(C(=O)N1CCN(c2ccccc2)CC1)S(=O)(=O)c1ccccc1", "property": "TGI", "reading": "> 100 µM"}
{"item smiles": "O=C(O)c1cc(CCc2cc(O)ccc2O)ccc1O", "property": "TGI", "reading": "> 100 µM"}
{"item smiles": "CC(=O)O[C@H]1CC[C@@]2(C)C(=CC[C@@H]3[C@@H]2CC[C@]2(C)c4nc(Cl)ccc4C[C@@H]32)C1", "property": "TGI", "reading": "> 100 µM"}
{"item smiles": "N#CCCNc1nonc1-c1nc2ccccc2n1CC(=O)c1ccc(NC(=O)[C@@H](N)CCCCN)cc1", "property": "TGI", "reading": "> 33.3 µM"}

With those in mind, consider the next compound.
INPUT: Find the recorded TGI belonging to CN1CCN(c2ccc3c(c2)NCC(=O)N3)CC1 and report it.
OUTPUT: > 100 µM

* * *

- Test system: SK-MEL-28 melanoma
- run description: NCI tumour cell line growth inhibition, 48 h
Exercise: for every item that follows, state its recorded TGI.

Sample answers from the record:
{"compound": "COc1cc2c(cc1F)C(c1ccccc1Cl)=Nc1c(n[nH]c1C)N2", "TGI": "20.4 µM"}
{"compound": "C[C@@H]1Cc2cc(O)ccc2[C@H]2CC[C@]3(C)/C(=C/COCCN(C)C)CC[C@H]3[C@H]12 (tested in a mixture with another compound)", "TGI": "1.46 µM"}

Would you mind giving TGI for every compound in the list below?
1. FC(F)(F)c1cccc(-c2nn3ncccc3c2-c2ccnc(Nc3ccc4c(c3)OCCO4)n2)c1
2. N#CCN1C(=O)c2cc([N+](=O)[O-])cc3cc([N+](=O)[O-])cc(c23)C1=O

OUTPUT:
> 25 µM
> 52.8 µM

INPUT: Recorded TGI for Oc1cccc2c1NCCC2 with SK-MEL-28 melanoma, please?
OUTPUT: > 100 µM

* * *

Exercise: for every item that follows, state its recorded GI50.
- Test system: SF-268 CNS
- run description: NCI tumour cell line growth inhibition, 48 h

{"item smiles": "COc1cccc(Oc2ccccc2NC(=O)CNC(=O)c2cccc3ccccc23)c1", "GI50": "547 nM"}
{"item smiles": "COc1cc(-c2nn(-c3cccc(NC(=O)CCN4CCN(Cc5ccccc5)CC4)c3)cc2-c2ccncc2)ccc1Cl", "GI50": "1050 nM"}
{"item smiles": "COc1cc(C(=O)Nc2cc(O)c(CC=C(C)C)c(O)c2)cc2c1O[C@]1(C)CC[C@@H](O)C(C)(C)[C@H]1C2", "GI50": "1790 nM"}
{"item smiles": "COc1cc2ncc3c(nc4sccn43)c2cc1OC", "GI50": "> 100000 nM"}
{"item smiles": "CN1CCc2nc3sc(C(N)=O)c(N)c3c(-c3cccs3)c2C1", "GI50": "3850 nM"}
{"item smiles": "Oc1c(-c2cc(C(F)(F)F)[nH]n2)cc(Cl)c(OCc2ccc(Cl)cc2)c1-c1ccc(Cl)c(C(F)(F)F)c1", "GI50": "180 nM"}

Would you mind giving GI50 for every molecule in the list below?
1. Fc1ccc(/C=N/n2c(-c3ccc(F)c(Cl)c3)n[nH]c2=S)cc1
2. CCOC(=O)c1cc2c(cc1Cl)SC(=Nc1ccccc1)N(S(=O)(=O)c1ccc(Br)s1)S2(=O)=O

OUTPUT:
1. 19800 nM
2. 19200 nM
